- test details: self-splicing fitness, log relative to wild type (ln ratio); higher = more splicing; Tetrahymena group I intron in knt gene, E. coli kanamycin selection, DiMSum; sequences stand for … in CUCUCU…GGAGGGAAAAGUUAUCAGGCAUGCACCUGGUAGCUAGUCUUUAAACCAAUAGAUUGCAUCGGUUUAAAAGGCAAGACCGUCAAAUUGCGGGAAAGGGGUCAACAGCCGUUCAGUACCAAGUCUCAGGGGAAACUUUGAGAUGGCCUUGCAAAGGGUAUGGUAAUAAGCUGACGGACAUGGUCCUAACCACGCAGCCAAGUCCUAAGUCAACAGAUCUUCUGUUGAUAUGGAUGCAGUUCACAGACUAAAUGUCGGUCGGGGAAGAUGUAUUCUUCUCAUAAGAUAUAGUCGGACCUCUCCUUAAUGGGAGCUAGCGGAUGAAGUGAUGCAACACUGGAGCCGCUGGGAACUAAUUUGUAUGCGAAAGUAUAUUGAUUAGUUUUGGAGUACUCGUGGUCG;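 also: selection with 25 µg/mL kanamycin versus none on LB agar overnight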
- details: 30 °C
Output True for self-splicing fitness (ln) not less than -2; output False otherwise.

1) AAUCAGCAAUAUUACGAGGU False

Now turn to the next sequence.
I'd appreciate it if you could say whether UAUAAGCAAUAUUACGAUUA has self-splicing fitness (ln) at least equal to -2.
True

---

- test details: self-splicing fitness, log relative to wild type (ln ratio); higher = more splicing; Tetrahymena group I intron in knt gene, E. coli kanamycin selection, DiMSum; sequences stand for … in CUCUCU…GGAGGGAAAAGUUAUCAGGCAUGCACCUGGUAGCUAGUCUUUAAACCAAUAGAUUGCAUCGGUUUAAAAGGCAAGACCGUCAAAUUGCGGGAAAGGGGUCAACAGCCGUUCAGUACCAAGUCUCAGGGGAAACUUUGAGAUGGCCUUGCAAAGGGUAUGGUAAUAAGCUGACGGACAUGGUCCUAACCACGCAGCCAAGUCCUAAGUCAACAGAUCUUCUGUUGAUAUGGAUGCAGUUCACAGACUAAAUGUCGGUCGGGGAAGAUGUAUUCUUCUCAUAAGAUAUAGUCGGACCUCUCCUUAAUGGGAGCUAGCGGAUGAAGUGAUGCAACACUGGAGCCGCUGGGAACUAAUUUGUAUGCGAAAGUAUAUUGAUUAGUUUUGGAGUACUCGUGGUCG
- details: 37 °C
Each record here notes measured self-splicing fitness (ln).
Lab note: write the figure by itself, no unit.

1. CACUAGCAAUAUUACGGACA -1.99
2. CGACAGCAAUAUUACGCGAG -2.32
3. UAGGAGCAAUAUUACGGAGA -2.34
4. GGCUAGCAAUAUUACGUAGC -2.16
5. CAGAAGCAAUAUUACGGGUC -2.55
6. UUUCAGCAAUAUUACGCCCG 0.939
7. UUAGAGCAAUAUUACGUUAU -2.14
8. CAUCAGCAAUAUUACGACUG -0.238
9. AACAAGCAAUAUUACGUUCA -0.805
10. AGAAAGCAAUAUUACGCAUU -2.06

Could you now consider this next sequence?
The reported value for GUGAAGCAAUAUUACGACGU in terms of self-splicing fitness (ln) is 0.675

---

- test details: self-splicing fitness, log relative to wild type (ln ratio); higher = more splicing; Tetrahymena group I intron in knt gene, E. coli kanamycin selection, DiMSum; sequences stand for … in CUCUCU…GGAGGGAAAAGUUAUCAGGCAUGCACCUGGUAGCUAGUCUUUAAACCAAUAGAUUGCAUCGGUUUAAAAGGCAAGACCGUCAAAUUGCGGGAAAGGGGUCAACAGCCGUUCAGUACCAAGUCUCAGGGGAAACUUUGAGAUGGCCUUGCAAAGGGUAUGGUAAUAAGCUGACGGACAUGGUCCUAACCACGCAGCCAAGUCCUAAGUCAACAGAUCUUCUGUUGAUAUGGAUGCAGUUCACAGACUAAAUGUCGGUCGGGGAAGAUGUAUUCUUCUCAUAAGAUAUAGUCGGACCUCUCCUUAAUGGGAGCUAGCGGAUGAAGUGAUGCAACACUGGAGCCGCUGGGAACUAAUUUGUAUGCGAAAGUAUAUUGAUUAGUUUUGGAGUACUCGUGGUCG
- details: 30 °C
measure name: self-splicing fitness (ln)
Lab note: write the figure by itself, no unit.

1. GGCUAGCAAUAUUACGUAGC -4.64
2. AGGCAGCAAUAUUACGUCGA -0.305

The reported value for UACGAGCAAUAUUACGCCGG in terms of self-splicing fitness (ln) is -2.84

---

- test details: self-splicing fitness, log relative to wild type (ln ratio); higher = more splicing; Tetrahymena group I intron in knt gene, E. coli kanamycin selection, DiMSum; sequences stand for … in CUCUCU…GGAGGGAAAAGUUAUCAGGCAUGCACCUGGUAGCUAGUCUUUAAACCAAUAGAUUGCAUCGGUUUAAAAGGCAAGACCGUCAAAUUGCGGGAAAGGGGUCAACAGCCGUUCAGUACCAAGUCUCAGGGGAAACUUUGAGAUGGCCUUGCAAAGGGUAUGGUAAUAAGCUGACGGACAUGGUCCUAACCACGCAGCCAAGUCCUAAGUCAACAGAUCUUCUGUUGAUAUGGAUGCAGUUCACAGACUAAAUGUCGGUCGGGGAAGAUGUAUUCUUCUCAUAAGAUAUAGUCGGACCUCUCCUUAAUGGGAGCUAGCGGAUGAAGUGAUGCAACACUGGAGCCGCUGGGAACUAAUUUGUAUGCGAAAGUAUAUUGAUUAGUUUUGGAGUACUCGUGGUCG
- details: 37 °C
measure name: self-splicing fitness (ln)
Lab note: write the figure by itself, no unit.

Sample records with self-splicing fitness (ln):
1) AUCCAGCAAUAUUACGUCGA -0.557
2) AGGGAGCAAUAUUACGGCUU -1.11
3) GGAGAGCAAUAUUACGAAUC -2.4
4) CGUCAGCAAUAUUACGGUAC -1.89

The reported value for GACUAGCAAUAUUACGCUCU in terms of self-splicing fitness (ln) is -0.12

The reported value for AUUGAGCAAUAUUACGCUGA in terms of self-splicing fitness (ln) is -2.27

---

- test details: self-splicing fitness, log relative to wild type (ln ratio); higher = more splicing; Tetrahymena group I intron in knt gene, E. coli kanamycin selection, DiMSum; sequences stand for … in CUCUCU…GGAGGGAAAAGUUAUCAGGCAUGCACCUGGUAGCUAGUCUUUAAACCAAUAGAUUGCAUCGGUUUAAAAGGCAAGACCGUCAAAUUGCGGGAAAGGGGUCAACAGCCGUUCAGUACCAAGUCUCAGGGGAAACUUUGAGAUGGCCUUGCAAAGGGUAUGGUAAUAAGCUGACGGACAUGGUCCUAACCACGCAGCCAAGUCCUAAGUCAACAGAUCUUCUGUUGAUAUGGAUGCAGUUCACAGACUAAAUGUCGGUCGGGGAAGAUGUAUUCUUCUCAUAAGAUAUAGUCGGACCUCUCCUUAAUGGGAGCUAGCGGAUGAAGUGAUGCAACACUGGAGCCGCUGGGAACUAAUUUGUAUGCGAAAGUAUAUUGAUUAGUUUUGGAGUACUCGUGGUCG
- details: 30 °C
Each record here notes measured self-splicing fitness (ln).
Lab note: write the figure by itself, no unit.

Sample records with self-splicing fitness (ln):
1) CAUCAGCAAUAUUACGGAUU -0.959
2) CGAUAGCAAUAUUACGGGAA -2.74
3) GCACAGCAAUAUUACGCAGA -3.16
4) CCUGAGCAAUAUUACGAAUG -2.21

The reported value for CCAUAGCAAUAUUACGAACA in terms of self-splicing fitness (ln) is -3.77

The reported value for UUUGAGCAAUAUUACGUACG in terms of self-splicing fitness (ln) is -1.49

---

- test details: self-splicing fitness, log relative to wild type (ln ratio); higher = more splicing; Tetrahymena group I intron in knt gene, E. coli kanamycin selection, DiMSum; sequences stand for … in CUCUCU…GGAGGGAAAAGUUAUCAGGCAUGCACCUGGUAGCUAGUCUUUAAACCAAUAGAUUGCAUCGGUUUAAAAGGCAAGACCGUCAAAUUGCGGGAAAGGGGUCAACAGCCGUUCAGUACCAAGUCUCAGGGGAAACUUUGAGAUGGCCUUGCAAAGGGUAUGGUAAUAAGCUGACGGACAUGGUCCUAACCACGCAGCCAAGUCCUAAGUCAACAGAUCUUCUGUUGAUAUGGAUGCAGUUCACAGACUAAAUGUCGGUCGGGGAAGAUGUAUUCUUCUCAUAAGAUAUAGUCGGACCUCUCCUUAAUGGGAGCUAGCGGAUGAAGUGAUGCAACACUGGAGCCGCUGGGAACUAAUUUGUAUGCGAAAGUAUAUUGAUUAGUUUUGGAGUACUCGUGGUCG
- details: 30 °C
Each record here notes measured self-splicing fitness (ln).
Lab note: write the figure by itself, no unit.

Sample records with self-splicing fitness (ln):
1) ACAUAGCAAUAUUACGUUCG -1.04
2) UACCAGCAAUAUUACGGGCG -0.359
3) GACUAGCAAUAUUACGAAAA -2.41

Could you now consider this next sequence?
The reported value for GACCAGCAAUAUUACGGAUA in terms of self-splicing fitness (ln) is -0.244
